# reported IC50; entries follow
- SYSTEM UNDER TEST: Hsp90α (Homo sapiens, UniProt P07900)
- ASSAY TEXT: biochemical
- MEASUREMENT CONDITIONS: FP competition, 6 nM Cy3B-GM, 10 nM protein, 4° C. for 24 h
QUANTITY MEASURED: IC50

compound=C#CCCCn1c(Sc2ccccc2OC(F)(F)F)nc2c(N)ncnc21 value="> 100 µM"
compound=C#CCCCn1c(Sc2cn(Cc3ccc(OC)cc3)c3ncc(Br)cc23)nc2c(N)ncnc21 value="> 50 µM"
compound="C#CCCCn1c(C(=O)c2cc(Cl)cc(Cl)c2)nc2c(N)ncnc21 [HJP-V-39T]" value="> 10 µM"
compound=C#CCCCn1cnc(N)c2nc(Sc3cc(Cl)c(Cl)cc3Cl)nc1-2 value="> 100 µM"
compound="C#CCCCn1c(Sc2cc(Br)cc(OC(F)(F)F)c2)nc2c(N)ncnc21 [PDP-120A]" value="> 100 µM"
compound="C#CCCCn1cnc(N)c2nc(Sc3cc(Br)cc(OC(F)(F)F)c3)nc1-2 [PDP-120B]" value="> 100 µM"
compound=CCC[C@H](C)n1c(Cc2cc(OC)c(OC)c(OC)c2)nc2c(N)ncnc21 value="> 500 µM"
compound=CC(C)C#Cc1cc(Cl)cc(Sc2nc3c(N)ncnc3n2CCCNC(C)C)c1 value="> 50 µM"
compound=Nc1ncnc2c1nc(Sc1cc(Cl)cc(Cl)c1)n2CCCN1CC(O)C1 value="> 10 µM"
compound=C#CCCCn1c(Sc2ccccc2CO)nc2c(N)ncnc21 value="> 100 µM"
compound=C#CCCCn1cnc(N)c2nc(Sc3ccc(Cl)cc3Cl)nc1-2 value="> 500 µM"

###

- SYSTEM UNDER TEST: Hsp90α (Homo sapiens, UniProt P07900)
- ASSAY TEXT: biochemical
- MEASUREMENT CONDITIONS: FP competition, 6 nM Cy3B-GM, 10 nM protein, 4° C. for 24 h
# reported IC50; entries follow
QUANTITY MEASURED: IC50

compound=C#CCCCn1c(Sc2ccccc2Cl)nc2c(N)ncnc21 value="> 100 µM"
compound=Nc1ncnc2c1nc(Sc1ccc(Cl)cc1Cl)n2CCc1ccccc1F value="> 50 µM"
compound="C#CCCCn1c(S(=O)(=O)c2ccc(Cl)cc2Cl)nc2c(N)ncnc21 [HJP-V-62T]" value="> 25 µM"
compound=Nc1ncnc2c1nc(Sc1ccc(Cl)cc1Cl)n2CCc1ccccc1Cl value="186 µM"
compound=CC(C)NCCCn1c(Sc2cc(Cl)cc(C#CC(C)(C)C)c2)nc2c(N)ncnc21 value="> 50 µM"
compound=C#CCCCn1cnc(N)c2nc(Sc3ccc(-n4cccc4)cc3)nc1-2 value="> 50 µM"
compound=C#CCCCn1c(Sc2ccc(Cl)cc2)nc2c(N)ncnc21 value="> 100 µM"
compound=C#CCCCn1c(Cc2cc(Cl)cc(Cl)c2)nc2c(N)ncnc21 value="> 10 µM"
compound="CC(O)CNCCCn1c(Sc2cc(Cl)cc(Cl)c2)nc2c(N)ncnc21 (centres unmarked)" value="51.7 µM"
compound=C#CCCCn1cnc(N)c2nc(Sc3cc(C)ccc3C)nc1-2 value="> 100 µM"
compound=CC(C)(C)NCCCn1c(Sc2cc(Cl)cc(Cl)c2)nc2c(N)nc(F)nc21 value="20.9 µM"
compound=C#CCCCn1c(Sc2cc(Br)cc3ccn(Cc4ccc(OC)cc4)c23)nc2c(N)ncnc21 value="> 50 µM"
compound="CC#CCn1c(Sc2cc(Cl)cc(Cl)c2)nc2c(N)ncnc21 [PDP-102A]" value="> 100 µM"
compound=Cc1ccc(-c2cc(Cl)cc(Sc3nc4c(N)ncnc4n3CCCNC(C)C)c2)o1 value="25.9 µM"

###

# reported IC50; entries follow
- SYSTEM UNDER TEST: Trap-1 (Homo sapiens)
- Sequence (Q12931 60-704): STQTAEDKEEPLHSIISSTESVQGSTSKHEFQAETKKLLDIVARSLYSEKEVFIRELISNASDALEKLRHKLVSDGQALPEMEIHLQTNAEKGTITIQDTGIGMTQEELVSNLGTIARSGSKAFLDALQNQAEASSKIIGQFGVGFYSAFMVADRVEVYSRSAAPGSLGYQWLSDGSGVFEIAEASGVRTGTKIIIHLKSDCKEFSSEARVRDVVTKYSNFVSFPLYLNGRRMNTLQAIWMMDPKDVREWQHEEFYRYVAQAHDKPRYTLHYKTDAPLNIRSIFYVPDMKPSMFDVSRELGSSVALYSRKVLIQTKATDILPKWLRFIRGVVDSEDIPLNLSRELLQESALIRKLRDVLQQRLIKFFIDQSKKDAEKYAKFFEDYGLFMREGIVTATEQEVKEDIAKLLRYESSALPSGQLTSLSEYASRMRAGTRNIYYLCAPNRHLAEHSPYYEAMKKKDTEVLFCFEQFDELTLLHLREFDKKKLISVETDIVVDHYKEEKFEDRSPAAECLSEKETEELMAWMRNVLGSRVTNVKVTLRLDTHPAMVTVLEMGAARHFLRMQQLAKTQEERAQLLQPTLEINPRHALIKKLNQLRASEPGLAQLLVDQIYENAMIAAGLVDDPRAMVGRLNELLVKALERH
- ASSAY TEXT: biochemical
QUANTITY MEASURED: IC50

molecule="C#CCCCn1cnc(N)c2nc(Sc3ccc(OC)cc3OC)nc1-2 [PU-H44]" quantity_measured=IC50 value="> 100 µM"
molecule="Nc1ncnc2c1nc(Sc1cc(Cl)cc(Cl)c1)n2CC1CCCCC1 [PDP-110A]" quantity_measured=IC50 value="> 100 µM"
molecule="Nc1ncnc2c1nc(Sc1cc(Cl)cc(Cl)c1)n2CCCC(F)(F)F [PDP-I-15-N9]" quantity_measured=IC50 value="> 50 µM"
molecule="Nc1ncnc2c1nc(Sc1cc(Cl)cc(Cl)c1)n2Cc1ccccc1 [PDP-107A]" quantity_measured=IC50 value="> 50 µM"

###

- SYSTEM UNDER TEST: Grp94 (Canis lupus familiaris, UniProt P41148)
- Sequence (P41148 with tags, fused parts or gaps DELINS287-327GGGG): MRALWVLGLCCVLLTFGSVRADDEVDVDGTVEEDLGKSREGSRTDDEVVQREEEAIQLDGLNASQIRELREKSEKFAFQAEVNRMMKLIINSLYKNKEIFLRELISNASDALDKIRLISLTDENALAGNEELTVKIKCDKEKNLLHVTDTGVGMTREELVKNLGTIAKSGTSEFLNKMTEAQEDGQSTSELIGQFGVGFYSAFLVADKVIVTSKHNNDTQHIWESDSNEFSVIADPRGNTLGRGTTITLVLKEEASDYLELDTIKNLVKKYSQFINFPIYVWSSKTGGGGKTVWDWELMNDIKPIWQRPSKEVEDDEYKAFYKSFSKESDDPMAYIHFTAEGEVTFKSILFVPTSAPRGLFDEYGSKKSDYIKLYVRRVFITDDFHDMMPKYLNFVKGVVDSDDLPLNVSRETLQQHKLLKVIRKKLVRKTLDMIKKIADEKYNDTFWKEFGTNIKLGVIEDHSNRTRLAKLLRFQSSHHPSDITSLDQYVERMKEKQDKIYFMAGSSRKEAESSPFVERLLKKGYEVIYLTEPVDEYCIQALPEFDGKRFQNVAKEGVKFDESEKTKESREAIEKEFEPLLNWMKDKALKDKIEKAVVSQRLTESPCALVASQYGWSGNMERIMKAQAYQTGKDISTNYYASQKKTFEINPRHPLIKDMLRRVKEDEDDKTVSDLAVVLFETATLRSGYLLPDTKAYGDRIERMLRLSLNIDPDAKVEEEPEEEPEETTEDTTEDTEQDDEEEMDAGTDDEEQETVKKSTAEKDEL
- MEASUREMENT CONDITIONS: read-out: Grp94; FP competition, 6 nM Cy3B-GM, 10 nM protein, 4° C. for 24 h
pIC50: −log10 of the molar value.
QUANTITY MEASURED: pIC50

mol=C#CCCCn1cnc(N)c2nc(Sc3ccccc3OC)nc1-2 value="< 4.00"
mol=C[C@@H](O)CNCCn1c(Sc2ccc(Cl)cc2Cl)nc2c(N)ncnc21 value=5.82
mol=C#CCCCn1cnc(N)c2nc(Sc3cc(C)cc(C)c3)nc1-2 value="< 4.00"

###

# reported pIC50; entries follow
- SYSTEM UNDER TEST: Hsp90α (Homo sapiens)
- ASSAY TEXT: biochemical
- MEASUREMENT CONDITIONS: FP competition, 6 nM Cy3B-GM, 10 nM protein, 4° C. for 24 h
pIC50: −log10 of the molar value.
QUANTITY MEASURED: pIC50

molecule="C#CCCCn1cnc(N)c2nc(Sc3cc(Cl)cc(Cl)c3Cl)nc1-2 [PDP-125B]" quantity_measured=pIC50 value="< 4.00"
molecule=C/C=C\c1cc(Cl)cc(Sc2nc3c(N)ncnc3n2CCCNC(C)C)c1 quantity_measured=pIC50 value=4.73
molecule=C#CCCCn1cnc(N)c2nc(Sc3cccc4ccccc34)nc1-2 quantity_measured=pIC50 value="< 4.00"
molecule=CC(C)(C)CNCCCn1c(Sc2cc(Cl)cc(Cl)c2)nc2c(N)nc(F)nc21 quantity_measured=pIC50 value="< 4.30"
molecule=C#CCCCn1c(Cc2c(C)cc(C)cc2C)nc2c(N)ncnc21 quantity_measured=pIC50 value="< 5.00"
molecule="C#CCCCn1c(Sc2cc(Cl)cc(Cl)c2Cl)nc2c(N)ncnc21 [PDP-125A]" quantity_measured=pIC50 value="< 4.00"
molecule=CC(C)NCCCn1c(Sc2cc(Cl)cc(-c3cc[nH]c3)c2)nc2c(N)ncnc21 quantity_measured=pIC50 value=4.91
molecule=C#CCCCn1c(Sc2cc(Cl)c(Cl)cc2Cl)nc2c(N)ncnc21 quantity_measured=pIC50 value="< 3.70"
molecule="C#CCCCn1c(Sc2cc(Br)cc(I)c2)nc2c(N)ncnc21 [PDP-108A]" quantity_measured=pIC50 value="< 4.30"

###

# reported IC50; entries follow
- SYSTEM UNDER TEST: Hsp90α (Homo sapiens, UniProt P07900)
- ASSAY TEXT: biochemical
- MEASUREMENT CONDITIONS: FP competition, 6 nM Cy3B-GM, 10 nM protein, 4° C. for 24 h
QUANTITY MEASURED: IC50

molecule="C#CCCCn1c(Cc2cc(Cl)ccc2Cl)nc2c(N)ncnc21 [HJP-V-54]" value="> 10 µM"
molecule="C#CCCCn1cnc(N)c2nc(Sc3ccccc3OC)nc1-2 [PU-H46]" value="> 100 µM"
molecule="C#CCCCn1c(Sc2ccc(Cl)cc2Cl)nc2c(N)ncnc21 [PU-H39]" value="> 300 µM"
molecule="C#CCCCn1c(Oc2ccc(Cl)cc2Cl)nc2c(N)ncnc21 [HJP-V-45]" value="> 10 µM"

###

- SYSTEM UNDER TEST: UniProt P41148
- MEASUREMENT CONDITIONS: read-out: Grp94; FP competition, 6 nM Cy3B-GM, 10 nM protein, 4° C. for 24 h
pIC50: −log10 of the molar value.
# reported pIC50; entries follow
QUANTITY MEASURED: pIC50

compound=C#CCCCn1cnc(N)c2nc(Sc3ccc(Cl)c4ccccc34)nc1-2 quantity_measured=pIC50 result_operator=< value=5.30
compound=CC(C)NCCCn1c(Sc2cc(Cl)cc(-c3cccs3)c2)nc2c(N)ncnc21 quantity_measured=pIC50 result_operator== value=6.80
compound=CC(C)NCCCn1c(Sc2cc(Cl)cc(-c3cccc([N+](=O)[O-])c3)c2)nc2c(N)ncnc21 quantity_measured=pIC50 result_operator== value=6.24
compound=CC(C)NCCCn1c(Sc2cc(Cl)cc(-c3ccco3)c2)nc2c(N)ncnc21 quantity_measured=pIC50 result_operator== value=6.49
compound="CC(Br)CCCn1cnc(N)c2nc(Sc3cc(Cl)cc(Cl)c3)nc1-2 (stereo not shown) [PDP-99B]" quantity_measured=pIC50 result_operator=< value=5.00
compound=CC(C)(C)CNCCCn1c(Sc2cc(Cl)cc(I)c2)nc2c(N)ncnc21 quantity_measured=pIC50 result_operator== value=6.31
compound=C#CCCCn1c(Cc2ccc(Cl)cc2Cl)nc2c(N)ncnc21 quantity_measured=pIC50 result_operator== value=6.15
compound=C#CCCCn1c(Sc2ccc(OC)cc2)nc2c(N)ncnc21 quantity_measured=pIC50 result_operator== value=5.95
compound=C#CCCCn1c(Sc2ccc(Cl)cc2Cl)nc2c(N)ncnc21 quantity_measured=pIC50 result_operator== value=6.92
compound="C[C@@H](NCCCn1c(Sc2cc(Cl)cc(Cl)c2)nc2c(N)ncnc21)C1CC1 [SO-III-128B]" quantity_measured=pIC50 result_operator== value=6.56
compound=Nc1ncnc2c1nc(Sc1cc(Cl)cc(Cl)c1)n2CCc1ccccc1 quantity_measured=pIC50 result_operator=< value=5.60
compound=CC(C)NCCCn1c(Sc2cc(C(F)(F)F)cc(C(F)(F)F)c2)nc2c(N)ncnc21 quantity_measured=pIC50 result_operator== value=5.61
compound=CC(C)=C(C)c1cc(Cl)cc(Sc2nc3c(N)ncnc3n2CCCNC(C)C)c1 quantity_measured=pIC50 result_operator== value=6.80
